SYSTEM TESTED: recombinant human DPP-1 (Cathepsin C) (Homo sapiens, UniProt P53634)
Sequence (P53634 25-463): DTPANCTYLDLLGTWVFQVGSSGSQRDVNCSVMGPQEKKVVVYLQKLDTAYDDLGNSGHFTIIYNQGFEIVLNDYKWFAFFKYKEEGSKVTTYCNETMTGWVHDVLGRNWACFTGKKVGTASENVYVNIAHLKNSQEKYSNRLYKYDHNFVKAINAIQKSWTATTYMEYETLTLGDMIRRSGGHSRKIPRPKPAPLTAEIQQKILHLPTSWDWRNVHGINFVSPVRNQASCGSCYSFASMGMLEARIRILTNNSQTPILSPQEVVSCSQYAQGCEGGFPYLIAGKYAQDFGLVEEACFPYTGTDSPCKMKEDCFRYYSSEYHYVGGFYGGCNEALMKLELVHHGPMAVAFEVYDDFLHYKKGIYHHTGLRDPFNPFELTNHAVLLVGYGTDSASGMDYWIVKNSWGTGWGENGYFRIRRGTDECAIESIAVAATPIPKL
METHOD NOTES: DPP-1 Inhibition Assay (In Vitro), fluorogenic substrate GR-AMC
EXPERIMENTAL PARAMETERS: 0.15 nM DPP-1, 10 uM GR-AMC, pH 7.0, room temperature; average value where tested multiple times
REPORTED PROPERTY: IC50 (nM)

• N[C@@H](Cc1c[nH]cn1)C(=O)N1CCC(Cc2ccc(-c3ccccc3)cc2)(C(=O)NCC2CCCCC2)CC1 = 930
• N[C@@H](Cc1cccs1)C(=O)N1CCC(Cc2ccncc2)(C(=O)N2CCOCC2)CC1 = 1300

----------
SYSTEM TESTED: recombinant human DPP-1 (Cathepsin C) (Homo sapiens)
METHOD NOTES: DPP-1 Inhibition Assay (In Vitro), fluorogenic substrate GR-AMC
EXPERIMENTAL PARAMETERS: 0.15 nM DPP-1, 10 uM GR-AMC, pH 7.0, room temperature; average value where tested multiple times
// reported IC50 per item
REPORTED PROPERTY: IC50

• N[C@@H](Cc1cccs1)C(=O)N1CCC(Cc2ccc(NS(=O)(=O)C(F)(F)F)cc2)(C(=O)NC2CCCCC2)CC1 = 150 nM
• N[C@@H](Cc1cccs1)C(=O)N1CCC(C(=O)NCC2CCOCC2)(c2ccccc2)CC1 = 76 nM
• N[C@@H](Cc1cccs1)C(=O)N1CCC(Cc2cccc(-c3ccc(C(F)(F)F)cc3)c2)(C(=O)NC2CCCCC2)CC1 = 120 nM
• N[C@@H](Cc1cccs1)C(=O)N1CCC(Cc2ccncc2)(C(=O)NCC2CCOCC2)CC1 = 130 nM
• N[C@@H](Cc1cccs1)C(=O)N1CCC(Cc2ccc(C(=O)Nc3ccccc3)cc2)(C(=O)NC2CCCCC2)CC1 = 33 nM
• CC[C@H](N)C(=O)N1CCC(Cc2ccc(I)cc2)(C(=O)NC2CCCCC2)CC1 = 2300 nM
• N[C@@H](Cc1nccs1)C(=O)N1CCC(Cc2ccc(-c3ccccc3)cc2)(C(=O)NC2CCCCC2)CC1 = 230 nM
• CC(=O)Nc1ccccc1-c1ccc(CC2(C(=O)NC3CCCCC3)CCN(C(=O)[C@@H](N)Cc3cccs3)CC2)cc1 = 52 nM
